system: CCRF-CEM leukemia; assay: NCI-60 one-dose screen, 48 h; conditions: 10 µM unless noted
Compounds without any hit were thinned out: in the full panel of roughly 83,000, 20% have a hit. Activity calls are given as the source filed them. The calls were made as follows: active = growth percent below 10; inactive = the rest.
// classify into True (active), False (inactive)

CCOC(=O)NC(/C=C/c1ccccc1)NC(=O)OCC :: False
CCCCCC[C@@H](O)C/C=C\CCCCCCCC(=O)OCCOC :: False
CC(=O)c1ccc2c(c1)CCc1ccccc1-2 :: False
Cc1cc(C(N)=O)cc(C)c1C(=O)OCCCl :: False
O=C1CSC(=S)N1Cc1cccnc1 :: False

In: What call does the record list for OC(CSc1ccccc1)CN1CCN(c2ccc(Cl)cc2)CC1 (stereo not given) ?
Out: False

In: // outcome(item) with item = `CCCCCCCCCCCC[n+]1ccc2ccccc2c1`
Out: True

* * *

test system: NCI-H226 lung; assay: NCI-60 one-dose screen, 48 h (100 = growth as untreated, 0 = no growth, -100 = all killed); details: 10 µM unless noted
The panel holds about 83,000 compounds, 20% with a hit somewhere; the sample as a whole holds those more often. Activity calls are given as the source filed them. Rule for the calls: active = growth percent below 10; inactive = the rest.
Quantity Measured: growth

Look over these answered cases.
CN(C)c1ccc(C(=C2C=CC(=[N+](C)C)C=C2)c2ccc(N(C)C)cc2)cc1 :: -73.1% (active)
O=C(NNc1ccccc1)OCc1ccccc1 :: 97.7% (inactive)

# evaluate next
Sample `CCN(CC)CCNc1ccc([N+](=O)[O-])c2sc3ccccc3c(=O)c12` , system: NCI-H226 lung. Its growth is 18.4% (inactive)

* * *

Tested on: MALME-3M melanoma
Assay: NCI-60 one-dose screen, 48 h (100 = growth as untreated, 0 = no growth, -100 = all killed)
Conditions: 10 µM unless noted
Procedure: Cells are grown in 96 well plates and exposed to the test compound for 48 hours. Compounds are tested at a single concentration, which is 10^-5 M for most compounds. The reported endpoint is percent growth (GI% or GIPRCNT), where numbers from 0 - 100% represent growth inhibition, and numbers from -100% - 0 represent cell death. For example, a value of 40 represents 60% growth inhibition. A value of 0 means no net growth occurred over the course of the experiment. […]
About 83,000 compounds went through this panel and 20% of them were active in at least one assay; those are over-represented in the sample as a whole. *1 amine or outer side, *2 acyl side, *3 side chain or, on linkers, in order; H or OH if unused. Where a SMILES comes first, the peptide text is derived from it. [ ]: non-standard residue; d: D form. The star is where a group is joined. X5 = CCC(=O)CC1CC(C)CC(C(=O)[*:2])N1[*:1]; X4 = CCCCCCCCC(C)C(=O)*; Aib = CC(C)(N)C(=O)O; X6 = CC(CN(C)CCO)N*
Quantity Measured: growth (%)
A number alone suffices; assume %.

O=C(Nc1ccc(Cl)c(Cl)c1)Nc1ccccc1O :: 114

Recorded result, `Cc1nc([N+](=O)[O-])c(Sc2nncc(-c3ccccc3)n2)n1C` , growth: -7.36

Kindly note the recorded growth for CCC1C[N+]2=C(c3cc(OC)c(OC)cc3CC2)c2c1cc1n2CCc2cc(OC)c(OC)cc2-1 (configuration not stated) , which is 29.9

growth reported for this molecule `S=C(SSC(=S)N1CCOCC1)N1CCOCC1` : 101

For CCCCCCCCC(C)C(=O)N1CCCC1C(=O)N1C(CC(=O)CC)CC(C)CC1C(=O)NC(C)C(=O)NC(C)(C)C(=O)NC(C)(C)C(=O)NC(C(=O)NC(C)C(=O)NC(C)(C)C(=O)NC(C)(C)C(=O)NC(C)CN(C)CCO)C(C)CC (configuration not stated) (X4-P[X5]A[Aib][Aib]IA[Aib][Aib]-X6; configuration not given here) the molecule record lists growth as 13.5

growth measured on `CCN(CC)c1ccc(/C=C\C(=O)c2ccc(NC(C)=O)cc2)cc1` = 117

So for `N=C(N)Sc1cccc[n+]1[O-]` , the logged growth turned out to be 22.2

* * *

We begin with a simple list: items and their reported growth.
system: NCI-H322M lung; assay: NCI-60 one-dose screen, 48 h (100 = growth as untreated, 0 = no growth, -100 = all killed); conditions: 10 µM unless noted
About 83,000 compounds went through this panel and 20% of them were active in at least one assay; those are over-represented in the sample as a whole.
Give the number; % is assumed, so skip it.

CCCCCCCCCCCC[N+]1(CCCCCCCCCCCC)CCCC(C)C1 (stereo not drawn) :: -85.9
NC(CS/C(Cl)=C/Cl)C(=O)O (stereo not drawn) :: 73.5

Now examine the next entry.
Consider `c1ccc2sc(SSN3CC4CCC(CC4)C3)nc2c1` . Its measured growth is 96

* * *

system: MDA-MB-231 breast; experiment: NCI-60 one-dose screen, 48 h (100 = growth as untreated, 0 = no growth, -100 = all killed); settings: 10 µM unless noted
Compounds without any hit were thinned out: in the full panel of roughly 83,000, 20% have a hit.
Known growth of a selection of compounds
Write it as a number; the unit % goes unstated.

Before answering, review these 10 worked examples.
Cn1c(-c2ccccc2)c(/C=C/C2=[N+](C)c3ccccc3C2(C)C)c2ccccc21 :: 15.6
CC12CCC(O)CC1=CCC1C2CCC2(C)C3=NN=CC3CC12 (centres undefined) :: 103
Oc1ccc(Cl)cc1Cc1cc(Cl)ccc1O :: 23.3
C/C(=N\NC(=S)N1CC2CCC(CC2)C1)c1ccccn1 :: 15.7
O=C(c1ccccc1)c1cc2ccccc2oc1=O :: 79.5
CC1(C)OC2C(COC(c3ccccc3)(c3ccccc3)c3ccccc3)OC(c3c[nH]c4c(N)ncnc34)C2O1 (centres undefined) :: 75.7
CCCCN(CCCC)CCCCCCCCCCO :: 120
O=[N+]([O-])c1ccc(C2N(Cc3ccc(Cl)cc3)CCN2Cc2ccc(Cl)cc2)cc1 :: 79.6
CCOC(=O)c1c(C)[nH]c2ccc(O)cc12 :: 96.7
N#CC1c2ccccc2C=CN1C(=O)CCCl (centres undefined) :: 103

Note to self: growth recorded for `CCCCCCCCCCCC1=NCCCN1CCCC` was 78.8

# growth (compound: `NC1=C(Br)C(=O)c2ncccc2C1=O` ) is 19.2

growth recorded for this compound, `Cc1ccc(/C=C2\CNC/C(=C\c3ccc(C)cc3)C2=O)cc1` , is -15.9

growth recorded for this compound, `NNc1cccc([N+](=O)[O-])c1` , is 58.9

Reported growth ( `N#Cc1c2ccccc2nc2ccccc12` ) = 99.4

For reference, reported growth for `CCOc1ccc(Nc2nc3c(s2)C(=O)c2ccccc2C3=O)cc1` stands at 33.9

Memo: `O=C1C=CC(=O)N1C1CCCCCCCCCCC1` , reported growth: 99.8

The compound listed as CCOc1ccc2c(c1)/C(=C\C=C\C1CC(C)C3CC(OCC)CCC3N1CC)CC(C)N2CC (centres undefined) shows growth equal to 13.6

Lab note: `CCN(CC)CCNc1ccc([N+](=O)[O-])c2sc3ccccc3c(=O)c12` gave growth of 56.2

* * *

system: SW-620 colon; experiment: NCI-60 one-dose screen, 48 h (100 = growth as untreated, 0 = no growth, -100 = all killed); settings: 10 µM unless noted
This is part of a sample that, as a whole, favours compounds with a hit. Of some 83,000 tested, about 20% had one in any assay.
Could you label it fulfilled if measured growth is 10% or higher, and not fulfilled otherwise?

Answered cases to consult:
Cc1ccc(/C=C2\CNC/C(=C\c3ccc(C)cc3)C2=O)cc1 :: not fulfilled
CCCCN(CCCC)CCCCCCCCCCO :: fulfilled
CN(C)c1ccc2cc3c(cc2c1)Oc1ccccc1N3.[Cl][Zn][Cl] :: fulfilled
S=c1[nH]c2cc(Cl)ccc2s1 :: fulfilled
O=[N+]([O-])CC(O)c1ccccc1 (stereo unspecified) :: fulfilled

Alright, here's another compound for you.
In: Check the entry `CCOc1ccc(Nc2nc3c(s2)C(=O)c2ccccc2C3=O)cc1` : does growth equal or exceed 10%?
Out: fulfilled

* * *

tested on: OVCAR-8 ovarian; experiment: NCI-60 one-dose screen, 48 h (100 = growth as untreated, 0 = no growth, -100 = all killed); details: 10 µM unless noted
This is part of a sample that, as a whole, favours compounds with a hit. Of some 83,000 tested, about 20% had one in any assay. Calls of active or inactive are those of the source. The calls were made as follows: active = growth percent below 10; inactive = the rest.
Quantity Measured: growth

O=[N+]([O-])c1cc(-c2ccccc2)c(O)c([N+](=O)[O-])c1 :: 91.7% (inactive)
S=C(S)OCN1CCOCC1 :: 88% (inactive)

# evaluate next
Form field growth, entry `CN(C)c1ccc(/C=C/c2nccc3ccccc23)cc1` : 87.9% (inactive)

* * *

tested on: NCI-H23 lung; assay: NCI-60 one-dose screen, 48 h (100 = growth as untreated, 0 = no growth, -100 = all killed); conditions: 10 µM unless noted
This is part of a sample that, as a whole, favours compounds with a hit. Of some 83,000 tested, about 20% had one in any assay.
Measured growth, listed per entry for reference.
Give a bare numeral; the unit % is implied.

O=[n+]1c2ccccc2n([O-])c2cc(Cl)ccc21 :: 91.3
COC(=O)[C@]1(C)CCC[C@]2(C)c3ccc(C(C)C)cc3C(=O)[C@@H](Br)[C@@H]12 :: 90.3
CCCCCCCCCCCCSC(=N)N :: 87.4
O=C1C=CC(=O)N1C1CCCCCCCCCCC1 :: 89.9

Given item `C/C(=N/NC(N)=S)c1ccc(C)cc1` , the value recorded as its growth is 95.4

Record `OC(Cc1cc(CC(O)(C(F)(F)F)C(F)(F)F)nc(CC(O)(C(F)(F)F)C(F)(F)F)c1)(C(F)(F)F)C(F)(F)F` . Reported growth: -5.07

Query `O=C(c1ccccc1)c1ccc(O)c2ncccc12` yields growth of 19.9

The compound identified as `N=C(N)Sc1cccc[n+]1[O-]` registered its growth at 55.6

For record CCC(C)C(N)C(=O)NC(CC(N)=O)C(=O)NC(CC(C)C)C(=O)NC(CCCCN)C(=O)NC(C)C(=O)NC(CC(C)C)C(=O)NC(C)C(=O)NC(C)C(=O)NC(CC(C)C)C(=O)NC(C)C(=O)NC(CCCCN)C(=O)NC(CCCCN)C(=O)NC(C(=O)NC(CC(C)C)C(N)=O)C(C)CC (configuration not stated) the listed growth is 82.1

The compound listed as `Oc1ccc2ccccc2c1N=Nc1ccccn1` has a reported growth of 42.6

What the record says about `NCCCN(CCCN)CCCNCc1c2ccccc2c(CNCCCN(CCCN)CCCN)c2ccccc12` : growth is 92.2
